Experimental Endpoint: IC50 (µM)
Write down the numeric answer in µM and omit the unit.

**Q:** Please provide the recorded IC50 for `C=CC[C@](C)(C(=O)NO)[C@@H](CC(C)C)C(=O)N[C@H](C(=O)NC)C(C)(C)C` , tested on 72 kDa type IV collagenase (Homo sapiens, UniProt P08253).
Sequence (P08253 whole entry): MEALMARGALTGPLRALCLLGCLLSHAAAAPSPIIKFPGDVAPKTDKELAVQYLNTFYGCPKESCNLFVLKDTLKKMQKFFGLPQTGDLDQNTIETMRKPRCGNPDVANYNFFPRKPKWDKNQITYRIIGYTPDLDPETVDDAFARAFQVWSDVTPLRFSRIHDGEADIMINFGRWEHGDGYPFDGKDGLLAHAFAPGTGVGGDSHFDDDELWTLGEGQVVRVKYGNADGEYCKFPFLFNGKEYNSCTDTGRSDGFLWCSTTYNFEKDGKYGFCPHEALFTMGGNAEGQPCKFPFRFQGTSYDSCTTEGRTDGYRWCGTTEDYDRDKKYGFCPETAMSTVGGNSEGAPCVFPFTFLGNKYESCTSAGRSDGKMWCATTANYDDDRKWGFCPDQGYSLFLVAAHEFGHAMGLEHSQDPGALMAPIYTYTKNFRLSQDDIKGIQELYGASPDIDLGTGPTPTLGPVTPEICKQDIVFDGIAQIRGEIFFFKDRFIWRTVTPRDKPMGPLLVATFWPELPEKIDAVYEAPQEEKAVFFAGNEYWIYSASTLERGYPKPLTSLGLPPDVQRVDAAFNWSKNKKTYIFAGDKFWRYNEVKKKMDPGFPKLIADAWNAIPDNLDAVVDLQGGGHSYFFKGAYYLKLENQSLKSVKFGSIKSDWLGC
**A:** 0.0025

**Q:** Please provide the recorded IC50 for `C=CC[C@@H](C(=O)NO)[C@@H](CC(C)C)C(=O)N[C@@H](Cc1ccccc1)C(=O)NC` , tested on 72 kDa type IV collagenase (Homo sapiens, UniProt P08253).
**A:** 0.035

**Q:** Please provide the recorded IC50 for `C=CCC(CC=C)(C(=O)NO)[C@@H](CC(C)C)C(=O)N[C@@H](Cc1ccccc1)C(=O)NC` , tested on 72 kDa type IV collagenase (Homo sapiens, UniProt P08253).
**A:** 0.11

**Q:** Please provide the recorded IC50 for `C=CC[C@](C)(C(=O)NO)[C@@H](CC(C)C)C(=O)N[C@@H](CC1CCCCC1)C(=O)NCCc1ccc(S(N)(=O)=O)cc1` , tested on 72 kDa type IV collagenase (Homo sapiens, UniProt P08253).
**A:** 0.023
